# EXPERIMENT: in vivo
# Design: species or system male CD-1 mice
# RECORDED CONDITIONS: male, CD-1, mouse, iv, 1 mg/kg
Bridge positions count the residues as written; N and C are the ends. Square brackets hold non-standard residues; d marks the D form. Peptide text beside a SMILES is read from it. * marks the point of attachment. Lauroyl = CCCCCCCCCCCC(=O)*; Dab = NCC[C@H](N)C(=O)O
READOUT LABEL: level at 0.5 h (ng/mL)
Expressed in ng/mL, but write only the number.

**Query** Form field: reported level at 0.5 h of CCCCCCCCCCCC(=O)NCCCC[C@@H]1NC(=O)[C@H](Cc2ccc(O)cc2)NC(=O)[C@@H]2CSSC[C@H](NC(=O)[C@H](C)NC(=O)[C@H](Cc3c[nH]cn3)NC(=O)[C@H](Cc3ccc(O)cc3)NC(=O)[C@@H]3CCCN3C(=O)[C@H]3CCCN3C(=O)[C@H](CCCCN)NC1=O)C(=O)N[C@@H](CCCNC(=N)N)C(=O)N[C@@H](C)C(=O)N1CCC[C@@H]1C(=O)N[C@@H](CCN)C(=O)N[C@@H](CCCNC(=N)N)C(=O)N[C@@H](Cc1ccc(O)cc1)C(=O)N2 [Ex. 17] (cyclo(YHACRA[dP][Dab]RYCYK(Lauroyl)K[dP]P); disulfide 4-11)
**Result** 1560

====

# EXPERIMENT: in vivo
# Set-up: species or system male CD-1 mice
# RECORDED CONDITIONS: male, CD-1, mouse, iv, 1 mg/kg
Bridge positions count the residues as written; N and C are the ends. Square brackets hold non-standard residues; d marks the D form. Peptide text beside a SMILES is read from it. * marks the point of attachment. Lauroyl = CCCCCCCCCCCC(=O)*; Dab = NCC[C@H](N)C(=O)O
READOUT LABEL: Tmax (min)
Expressed in min, but write only the number.

**Query** Form field: reported Tmax of CCCCCCCCCCCC(=O)NCCCC[C@@H]1NC(=O)[C@H](Cc2ccc(O)cc2)NC(=O)[C@@H]2CSSC[C@H](NC(=O)[C@H](C)NC(=O)[C@H](Cc3c[nH]cn3)NC(=O)[C@H](Cc3ccc(O)cc3)NC(=O)[C@@H]3CCCN3C(=O)[C@H]3CCCN3C(=O)[C@H](CCCCN)NC1=O)C(=O)N[C@@H](CCCNC(=N)N)C(=O)N[C@@H](C)C(=O)N1CCC[C@@H]1C(=O)N[C@@H](CCN)C(=O)N[C@@H](CCCNC(=N)N)C(=O)N[C@@H](Cc1ccc(O)cc1)C(=O)N2 [Ex. 17] (cyclo(YHACRA[dP][Dab]RYCYK(Lauroyl)K[dP]P); disulfide 4-11)
**Result** 6

====

# EXPERIMENT: Plasma stability in human plasma
# Format: in vitro ADME
# RECORDED CONDITIONS: human plasma, 37° C., 1440 min; read-out: human pl. cpd left at 1440 min
# Procedure: Percent hemolysis was calculated as follows: (OD540peptide/OD540H2O)×100%. 2.6. Plasma Stability The stability of the peptides in human and mouse plasma was determined by applying the following method: 346.5 μL/deep well of freshly thawed human plasma (Basler Blutspendedienst) and mouse plasma (Harlan Sera-Lab, UK), respectively, were spiked with 3.5 μL/well of compound dissolved in DMSO/H2O ([…] [v/v], 1 mM, triplicate) and incubated at 37° C. […]
Bridge positions count the residues as written; N and C are the ends. Square brackets hold non-standard residues; d marks the D form. Peptide text beside a SMILES is read from it. * marks the point of attachment. Decanoyl = CCCCCCCCCC(=O)*; Dab = NCC[C@H](N)C(=O)O
READOUT LABEL: remaining at 24 h, 10 μM (%)
Expressed in %, but write only the number.

**Query** Form field: reported remaining at 24 h, 10 μM of CCCCCCCCCC(=O)NCC[C@@H]1NC(=O)[C@H](Cc2ccc(O)cc2)NC(=O)[C@@H]2CSSC[C@H](NC(=O)[C@H](C)NC(=O)[C@H](Cc3c[nH]cn3)NC(=O)[C@H](Cc3ccc(O)cc3)NC(=O)[C@@H]3CCCN3C(=O)[C@H]3CCCN3C(=O)[C@H](CCCCN)NC1=O)C(=O)N[C@@H](CCCNC(=N)N)C(=O)N[C@@H](C)C(=O)N1CCC[C@@H]1C(=O)N[C@@H](CCN)C(=O)N[C@@H](CCCNC(=N)N)C(=O)N[C@@H](Cc1ccc(O)cc1)C(=O)N2 [Ex. 10] (cyclo(YHACRA[dP][Dab]RYCY[Dab](Decanoyl)K[dP]P); disulfide 4-11)
**Result** 85

Origin of the recorded values: patent US8716242B2
